Numbers sourced from PubChem BioAssay AID2060600.

# Tested on: 996289-038-R-J1-PDC complex spheroid viability
# experimentDescription: Anticancer human tumor 996289-038-R-J1-PDC patient-derived colon adenocarcinoma cell line growth inhibition [CLK]; active = viability on the fitted dose curve at most 10% of control; inactive = the rest
# particulars: second compound 1 µM; first compound 3.16 µM
Classes used: Y (active), N (inactive)

{"molecule": "CC(CO)NC(=O)c1cc(-c2ccc(Cl)cc2)nn(-c2cnn(C)c2)c1=O (stereo not given) + CN1CCN(c2cc(C(=O)Nc3cc4cc(-c5cnn(C)c5)ccc4cn3)ccn2)CC1", "groupLabel": "Y"}
{"molecule": "Nc1ccn(C2OC(CO)C(O)C2(F)F)c(=O)n1 (stereo not given) + CN1CCN(c2cc(C(=O)Nc3cc4cc(-c5cnn(C)c5)ccc4cn3)ccn2)CC1", "groupLabel": "Y"}
{"molecule": "COc1cccc2c1C(=O)c1c(O)c3c(c(O)c1C2=O)CC(O)(C(=O)CO)CC3OC1CC(N)C(O)C(C)O1 (stereo not given) + CNC(=O)c1ccc(Nc2nc(OC3CCCC3)c3c(-c4ccc5nc(C)oc5c4)c[nH]c3n2)c(OC)c1", "groupLabel": "N"}
{"molecule": "C=CC(=O)N1CCN(c2nc(=O)n(-c3c(C)ccnc3C(C)C)c3nc(-c4c(O)cccc4F)c(F)cc23)C(C)C1 (stereo not given) + CN1CCN(c2cc(C(=O)Nc3cc4cc(-c5cnn(C)c5)ccc4cn3)ccn2)CC1", "groupLabel": "Y"}
{"molecule": "O=c1[nH]cc(F)c(=O)[nH]1 + CNC(=O)c1ccc(Nc2nc(OC3CCCC3)c3c(-c4ccc5nc(C)oc5c4)c[nH]c3n2)c(OC)c1", "groupLabel": "N"}
{"molecule": "O=C(c1cc(Cc2n[nH]c(=O)c3ccccc23)ccc1F)N1CCN(C(=O)C2CC2)CC1 + CNC(=O)c1ccc(Nc2nc(OC3CCCC3)c3c(-c4ccc5nc(C)oc5c4)c[nH]c3n2)c(OC)c1", "groupLabel": "N"}
{"molecule": "CC1COCCN1c1cc(C2(S(C)(=N)=O)CC2)nc(-c2ccnc3[nH]ccc23)n1 (stereo not given) + CN1CCN(c2cc(C(=O)Nc3cc4cc(-c5cnn(C)c5)ccc4cn3)ccn2)CC1", "groupLabel": "Y"}
{"molecule": "C#Cc1c(F)ccc2cc(O)cc(-c3ncc4c(N5CC6CCC(C5)N6)nc(OCC56CCCN5CC(F)C6)nc4c3F)c12 (stereo not given) + CN1CCN(c2cc(C(=O)Nc3cc4cc(-c5cnn(C)c5)ccc4cn3)ccn2)CC1", "groupLabel": "Y"}
{"molecule": "O=C(c1cc(Cc2n[nH]c(=O)c3ccccc23)ccc1F)N1CCN(C(=O)C2CC2)CC1 + CN1CCN(c2cc(C(=O)Nc3cc4cc(-c5cnn(C)c5)ccc4cn3)ccn2)CC1", "groupLabel": "Y"}
{"molecule": "C=CC(=O)N1CCN(c2nc(=O)n(-c3c(C)ccnc3C(C)C)c3nc(-c4c(O)cccc4F)c(F)cc23)C(C)C1 (stereo not given) + CNC(=O)c1ccc(Nc2nc(OC3CCCC3)c3c(-c4ccc5nc(C)oc5c4)c[nH]c3n2)c(OC)c1", "groupLabel": "N"}

----------
# Tested on: 996289-038-R-J1-PDC complex spheroid viability
# experimentDescription: Anticancer human tumor 996289-038-R-J1-PDC cell line growth inhibition [CLK];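 also: spheroids exposed to the agents for 7 days before readout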
# particulars: second compound 1 µM; first compound 0.316 µM; hits give low values
measuredProperty: viability, T/C (%)

{"molecule": "COc1cccc2c1C(=O)c1c(O)c3c(c(O)c1C2=O)CC(O)(C(=O)CO)CC3OC1CC(N)C(O)C(C)O1 (stereo unspecified) + CNC(=O)c1ccc(Nc2nc(OC3CCCC3)c3c(-c4ccc5nc(C)oc5c4)c[nH]c3n2)c(OC)c1", "measureUnit": "%", "valueMeasured": 42.2}
{"molecule": "CC1COCCN1c1cc(C2(S(C)(=N)=O)CC2)nc(-c2ccnc3[nH]ccc23)n1 (stereo unspecified) + CN1CCN(c2cc(C(=O)Nc3cc4cc(-c5cnn(C)c5)ccc4cn3)ccn2)CC1", "measureUnit": "%", "valueMeasured": 5.79}
{"molecule": "Nc1ccn(C2OC(CO)C(O)C2(F)F)c(=O)n1 (stereo unspecified) + CNC(=O)c1ccc(Nc2nc(OC3CCCC3)c3c(-c4ccc5nc(C)oc5c4)c[nH]c3n2)c(OC)c1", "measureUnit": "%", "valueMeasured": 54.6}
{"molecule": "O=c1[nH]cc(F)c(=O)[nH]1 + CN1CCN(c2cc(C(=O)Nc3cc4cc(-c5cnn(C)c5)ccc4cn3)ccn2)CC1", "measureUnit": "%", "valueMeasured": 5.87}
{"molecule": "CC(CO)NC(=O)c1cc(-c2ccc(Cl)cc2)nn(-c2cnn(C)c2)c1=O (stereo unspecified) + CN1CCN(c2cc(C(=O)Nc3cc4cc(-c5cnn(C)c5)ccc4cn3)ccn2)CC1", "measureUnit": "%", "valueMeasured": 6.26}
{"molecule": "CC(CO)NC(=O)c1cc(-c2ccc(Cl)cc2)nn(-c2cnn(C)c2)c1=O (stereo unspecified) + CNC(=O)c1ccc(Nc2nc(OC3CCCC3)c3c(-c4ccc5nc(C)oc5c4)c[nH]c3n2)c(OC)c1", "measureUnit": "%", "valueMeasured": 57.8}

----------
# Test system: 996289-038-R-J1-PDC complex spheroid viability
# experimentDescription: Anticancer human tumor 996289-038-R-J1-PDC cell line growth inhibition [CLK];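 also: spheroids exposed to the agents for 7 days before readout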
# particulars: second compound 3.16 µM; first compound 3.16 µM; hits give low values
Labelling field: enter label 1 if recorded viability, T/C is less than 50%. Enter label 0 if it equals or exceeds that cut-off.

{"compound": "CC1COCCN1c1cc(C2(S(C)(=N)=O)CC2)nc(-c2ccnc3[nH]ccc23)n1 (stereo unspecified) + CNC(=O)c1ccc(Nc2nc(OC3CCCC3)c3c(-c4ccc5nc(C)oc5c4)c[nH]c3n2)c(OC)c1", "groupLabel": "label 1"}
{"compound": "CCCS(=O)(=O)Nc1ccc(F)c(C(=O)c2c[nH]c3ncc(-c4ccc(Cl)cc4)cc23)c1F + CNC(=O)c1ccc(Nc2nc(OC3CCCC3)c3c(-c4ccc5nc(C)oc5c4)c[nH]c3n2)c(OC)c1", "groupLabel": "label 0"}
{"compound": "CC(Nc1ccc2c(c1)OCCn1cc(N3C(=O)OCC3C(F)F)nc1-2)C(N)=O (stereo unspecified) + CN1CCN(c2cc(C(=O)Nc3cc4cc(-c5cnn(C)c5)ccc4cn3)ccn2)CC1", "groupLabel": "label 1"}
{"compound": "O=c1[nH]cc(F)c(=O)[nH]1 + CNC(=O)c1ccc(Nc2nc(OC3CCCC3)c3c(-c4ccc5nc(C)oc5c4)c[nH]c3n2)c(OC)c1", "groupLabel": "label 0"}
{"compound": "C#Cc1c(F)ccc2cc(O)cc(-c3ncc4c(N5CC6CCC(C5)N6)nc(OCC56CCCN5CC(F)C6)nc4c3F)c12 (stereo unspecified) + CNC(=O)c1ccc(Nc2nc(OC3CCCC3)c3c(-c4ccc5nc(C)oc5c4)c[nH]c3n2)c(OC)c1", "groupLabel": "label 1"}
{"compound": "O=c1[nH]cc(F)c(=O)[nH]1 + CN1CCN(c2cc(C(=O)Nc3cc4cc(-c5cnn(C)c5)ccc4cn3)ccn2)CC1", "groupLabel": "label 1"}
{"compound": "COc1cccc2c1C(=O)c1c(O)c3c(c(O)c1C2=O)CC(O)(C(=O)CO)CC3OC1CC(N)C(O)C(C)O1 (stereo unspecified) + CNC(=O)c1ccc(Nc2nc(OC3CCCC3)c3c(-c4ccc5nc(C)oc5c4)c[nH]c3n2)c(OC)c1", "groupLabel": "label 1"}
{"compound": "CC(CO)NC(=O)c1cc(-c2ccc(Cl)cc2)nn(-c2cnn(C)c2)c1=O (stereo unspecified) + CN1CCN(c2cc(C(=O)Nc3cc4cc(-c5cnn(C)c5)ccc4cn3)ccn2)CC1", "groupLabel": "label 1"}
{"compound": "O=C(c1cc(Cc2n[nH]c(=O)c3ccccc23)ccc1F)N1CCN(C(=O)C2CC2)CC1 + CNC(=O)c1ccc(Nc2nc(OC3CCCC3)c3c(-c4ccc5nc(C)oc5c4)c[nH]c3n2)c(OC)c1", "groupLabel": "label 0"}
{"compound": "COc1cccc2c1C(=O)c1c(O)c3c(c(O)c1C2=O)CC(O)(C(=O)CO)CC3OC1CC(N)C(O)C(C)O1 (stereo unspecified) + CN1CCN(c2cc(C(=O)Nc3cc4cc(-c5cnn(C)c5)ccc4cn3)ccn2)CC1", "groupLabel": "label 1"}
{"compound": "C=CC(=O)N1CCN(c2nc(=O)n(-c3c(C)ccnc3C(C)C)c3nc(-c4c(O)cccc4F)c(F)cc23)C(C)C1 (stereo unspecified) + CNC(=O)c1ccc(Nc2nc(OC3CCCC3)c3c(-c4ccc5nc(C)oc5c4)c[nH]c3n2)c(OC)c1", "groupLabel": "label 0"}

----------
# Tested on: 996289-038-R-J1-PDC complex spheroid viability
# experimentDescription: Anticancer human tumor 996289-038-R-J1-PDC cell line growth inhibition [CLK]; active = viability on the fitted dose curve at most 10% of control; inactive = the rest;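 also: spheroids exposed to the agents for 7 days before readout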
# particulars: second compound 1 µM; first compound 1 µM
Classes used: T for active, F for inactive

{"molecule": "C#Cc1c(F)ccc2cc(O)cc(-c3ncc4c(N5CC6CCC(C5)N6)nc(OCC56CCCN5CC(F)C6)nc4c3F)c12 (stereo unspecified) + CNC(=O)c1ccc(Nc2nc(OC3CCCC3)c3c(-c4ccc5nc(C)oc5c4)c[nH]c3n2)c(OC)c1", "groupLabel": "F"}
{"molecule": "O=c1[nH]cc(F)c(=O)[nH]1 + CN1CCN(c2cc(C(=O)Nc3cc4cc(-c5cnn(C)c5)ccc4cn3)ccn2)CC1", "groupLabel": "T"}
{"molecule": "C=CC(=O)N1CCN(c2nc(=O)n(-c3c(C)ccnc3C(C)C)c3nc(-c4c(O)cccc4F)c(F)cc23)C(C)C1 (stereo unspecified) + CNC(=O)c1ccc(Nc2nc(OC3CCCC3)c3c(-c4ccc5nc(C)oc5c4)c[nH]c3n2)c(OC)c1", "groupLabel": "F"}
{"molecule": "O=c1[nH]cc(F)c(=O)[nH]1 + CNC(=O)c1ccc(Nc2nc(OC3CCCC3)c3c(-c4ccc5nc(C)oc5c4)c[nH]c3n2)c(OC)c1", "groupLabel": "F"}
{"molecule": "COc1cccc2c1C(=O)c1c(O)c3c(c(O)c1C2=O)CC(O)(C(=O)CO)CC3OC1CC(N)C(O)C(C)O1 (stereo unspecified) + CNC(=O)c1ccc(Nc2nc(OC3CCCC3)c3c(-c4ccc5nc(C)oc5c4)c[nH]c3n2)c(OC)c1", "groupLabel": "F"}
{"molecule": "C#Cc1c(F)ccc2cc(O)cc(-c3ncc4c(N5CC6CCC(C5)N6)nc(OCC56CCCN5CC(F)C6)nc4c3F)c12 (stereo unspecified) + CN1CCN(c2cc(C(=O)Nc3cc4cc(-c5cnn(C)c5)ccc4cn3)ccn2)CC1", "groupLabel": "T"}
{"molecule": "COC1C=CCC(C)C(C)S(=O)(=O)NC(=O)c2ccc3c(c2)N(CC2CCC21)CC1(CCCc2cc(Cl)ccc21)CO3 (stereo unspecified) + CNC(=O)c1ccc(Nc2nc(OC3CCCC3)c3c(-c4ccc5nc(C)oc5c4)c[nH]c3n2)c(OC)c1", "groupLabel": "F"}
{"molecule": "CC1COCCN1c1cc(C2(S(C)(=N)=O)CC2)nc(-c2ccnc3[nH]ccc23)n1 (stereo unspecified) + CNC(=O)c1ccc(Nc2nc(OC3CCCC3)c3c(-c4ccc5nc(C)oc5c4)c[nH]c3n2)c(OC)c1", "groupLabel": "F"}
{"molecule": "CC(Nc1ccc2c(c1)OCCn1cc(N3C(=O)OCC3C(F)F)nc1-2)C(N)=O (stereo unspecified) + CNC(=O)c1ccc(Nc2nc(OC3CCCC3)c3c(-c4ccc5nc(C)oc5c4)c[nH]c3n2)c(OC)c1", "groupLabel": "F"}
{"molecule": "COC1C=CCC(C)C(C)S(=O)(=O)NC(=O)c2ccc3c(c2)N(CC2CCC21)CC1(CCCc2cc(Cl)ccc21)CO3 (stereo unspecified) + CN1CCN(c2cc(C(=O)Nc3cc4cc(-c5cnn(C)c5)ccc4cn3)ccn2)CC1", "groupLabel": "T"}
{"molecule": "COc1ccc([C@@H](O)c2cc(-c3ncnc4cc(N5CCOCC5)ccc34)c(F)cc2Cl)nn1 + CNC(=O)c1ccc(Nc2nc(OC3CCCC3)c3c(-c4ccc5nc(C)oc5c4)c[nH]c3n2)c(OC)c1", "groupLabel": "F"}
